Tested on: SW-620 colon
Measurement Description: NCI tumour cell line growth inhibition, 48 h; in the data active means GI50 below about 0.43 µM; inactive means the rest
Bench note: report the call from true = active, false = inactive

>  <Compound>
CCOC(=O)N1CCC(N=C2CSc3nnc(-c4cc(C(F)(F)F)cc(C(F)(F)F)c4)n3N2)CC1

>  <Classification>
false

$$$$
>  <Compound>
COc1ccc(C(=O)/C=C/c2ccc(OCc3cccc(C(F)(F)F)c3)c(OC)c2)cc1OC

>  <Classification>
false

$$$$
>  <Compound>
C[C@@H]1CC[C@@H]2[C@@H]1[C@H](OC(=O)/C=C/C1CCCCC1)[C@]1(C3CCCCC3)C[C@@H](OC(=O)CO)[C@@]2(C)O1

>  <Classification>
false

$$$$
>  <Compound>
CCN(CC)CCOc1nc2ccccc2c2c1-c1ccc(OC)cc1C2=O

>  <Classification>
true

$$$$
>  <Compound>
CN1CCN(Cc2ccc(NC(=O)c3cncc(C#Cc4ccc(N)nc4)c3)cc2C(F)(F)F)CC1

>  <Classification>
false

$$$$
>  <Compound>
NS(=O)(=O)c1ccc(-n2nc3c(c2-c2cccs2)Cc2ccccc2-3)cc1

>  <Classification>
false

$$$$

Please examine the following record next.
Query :: Hi, do you know how NC1CC(=O)c2c(-c3cccs3)sc(-c3cccs3)c21 (configuration not stated) came out in this test?
Result :: false
